Tested on: fibrinolysis in whole blood
Assay: Thromboelastometric (ROTEM) analysis of clot formation and fibrinolysis in whole blood
Set-up: species or system human
Conditions: human whole blood; whole blood alone about 61 %
Non-standard residues stand in square brackets, D forms with d. Residues, ends and D or L forms follow the SMILES beside them. Ahx = NCCCCCC(=O)O
Quick reference for lysis of the clot in 45 min (from LI45) among some compounds
State just the number; it will be interpreted in %.

Guide cases for lysis of the clot in 45 min (from LI45), answers given:
NCCCCCC(N)=O [H–EACA–NH2, reference compound]; 20
NCCCCCC(=O)O; 1
C[C@H](N)C(=O)N[C@@H](Cc1ccccc1)C(=O)N[C@@H](CCCCN)C(=O)NCCCCCC(N)=O [Compound 8, H–Ala–Phe–Lys–EACA–NH2] (H-AFK[Ahx]-NH2); 14

Attention now shifts to the item below.
Form field lysis of the clot in 45 min (from LI45), entry C[C@@H](N)C(=O)N[C@@H](Cc1ccccc1)C(=O)N[C@@H](CCCCN)C(=O)NCCCCCC(N)=O [Compound 7, H–D-Ala–Phe–Lys–EACA–NH2] (H-[dA]FK[Ahx]-NH2) : 21

---

Quick reference for IC50 among some molecules
Target: tPA (Homo sapiens)
Construct: purchased Boehringer Ingelheim GmbH (Ingelheim, Germany)
Sequence (P00750 36-562): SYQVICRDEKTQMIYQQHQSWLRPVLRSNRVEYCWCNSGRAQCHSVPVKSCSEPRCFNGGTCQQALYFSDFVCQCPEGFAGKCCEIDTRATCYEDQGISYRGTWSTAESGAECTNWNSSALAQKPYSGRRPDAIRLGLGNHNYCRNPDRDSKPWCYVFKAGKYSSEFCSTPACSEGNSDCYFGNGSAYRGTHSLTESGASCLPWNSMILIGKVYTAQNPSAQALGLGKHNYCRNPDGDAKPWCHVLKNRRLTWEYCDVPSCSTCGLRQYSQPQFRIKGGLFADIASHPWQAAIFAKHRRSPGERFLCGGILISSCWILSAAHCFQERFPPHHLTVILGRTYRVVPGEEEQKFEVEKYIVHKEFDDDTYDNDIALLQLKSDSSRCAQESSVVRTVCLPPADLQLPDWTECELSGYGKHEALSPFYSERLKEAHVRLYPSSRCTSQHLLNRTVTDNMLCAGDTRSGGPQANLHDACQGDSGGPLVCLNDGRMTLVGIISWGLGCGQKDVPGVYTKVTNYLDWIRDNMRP
Experiment: Amidolytic activity of t-PA (substrate S-2288)
Assay type: biochemical
Details: amidolytic activity, S-2288, tris buffer pH 8.4
Non-standard residues stand in square brackets, D forms with d. Residues, ends and D or L forms follow the SMILES beside them. Ahx = NCCCCCC(=O)O
State just the number; it will be interpreted in mM.

C[C@H](N)C(=O)N[C@@H](Cc1ccccc1)C(=O)N[C@@H](CCCCN)C(=O)NCCCCCC(=O)O [Compound 3, H–Ala–Phe–Lys–EACA–OH] (H-AFK[Ahx]-OH); 17.6

Attention now shifts to the item below.
Form field IC50, entry C[C@@H](N)C(=O)N[C@@H](Cc1ccccc1)C(=O)N[C@@H](CCCCN)C(=O)NCCCCCC(=O)O [Compound 2, H–D-Ala–Phe–Lys–EACA–OH] (H-[dA]FK[Ahx]-OH) : 14.4

---

Molecular target: plasmin (Homo sapiens)
Construct: The amino-terminal heavy chain of PL consists of five kringle domains; The C-terminal light chain of plasmin is a typical serine protease (SP); purchased Chromogenix (Milano, Italy)
Sequence (P00747 97-580 limits assumed): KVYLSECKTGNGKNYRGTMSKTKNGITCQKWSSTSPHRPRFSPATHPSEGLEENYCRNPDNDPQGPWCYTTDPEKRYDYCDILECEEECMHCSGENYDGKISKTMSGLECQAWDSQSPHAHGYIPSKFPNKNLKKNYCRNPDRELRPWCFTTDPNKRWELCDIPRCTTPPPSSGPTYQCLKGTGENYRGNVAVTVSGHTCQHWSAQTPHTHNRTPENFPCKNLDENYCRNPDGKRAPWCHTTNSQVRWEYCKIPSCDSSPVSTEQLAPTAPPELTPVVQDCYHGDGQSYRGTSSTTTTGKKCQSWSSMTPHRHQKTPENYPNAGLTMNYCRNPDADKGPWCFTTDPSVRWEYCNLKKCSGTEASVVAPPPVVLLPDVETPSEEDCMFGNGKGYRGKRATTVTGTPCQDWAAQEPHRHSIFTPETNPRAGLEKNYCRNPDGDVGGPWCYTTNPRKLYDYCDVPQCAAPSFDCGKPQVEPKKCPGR
Sequence (P00747 581-810 limits assumed): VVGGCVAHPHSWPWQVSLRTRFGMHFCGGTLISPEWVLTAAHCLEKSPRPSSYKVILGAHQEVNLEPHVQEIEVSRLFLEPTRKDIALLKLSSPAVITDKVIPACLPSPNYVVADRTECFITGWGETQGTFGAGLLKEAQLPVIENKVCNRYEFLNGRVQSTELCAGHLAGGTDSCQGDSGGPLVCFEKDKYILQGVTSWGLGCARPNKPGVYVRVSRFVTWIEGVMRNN
Assay: Amidolytic activity of plasmin (substrate S-2251)
Type: biochemical
Details: amidolytic activity, S-2251, tris buffer pH 7.4
Non-standard residues stand in square brackets, D forms with d. Residues, ends and D or L forms follow the SMILES beside them. Ahx = NCCCCCC(=O)O
ENDPOINT LABEL: IC50 (mM)
State just the number; it will be interpreted in mM.

Guide cases for IC50, answers given:
C[C@@H](N)C(=O)N[C@@H](Cc1ccccc1)C(=O)NCCCCCC(=O)O [Compound 4, H–D-Ala–Phe–EACA–OH] (H-[dA]-Phe-[Ahx]-OH); 10.9
NCCCCCNC(=O)CCCCCNC(=O)[C@H](CCCCN)NC(=O)[C@@H](N)Cc1ccccc1; 4.82
C[C@@H](N)C(=O)N[C@@H](Cc1ccccc1)C(=O)NCCCCCC(N)=O [Compound 9, H–D-Ala–Phe–EACA–NH2] (H-[dA]-Phe-[Ahx]-NH2); 1.55
C[C@@H](N)C(=O)N[C@@H](Cc1ccccc1)C(=O)N[C@@H](CCCCN)C(=O)NCCCCCC(N)=O [Compound 7, H–D-Ala–Phe–Lys–EACA–NH2] (H-[dA]FK[Ahx]-NH2); 0.02

Attention now shifts to the item below.
Form field IC50, entry `C[C@H](N)C(=O)N[C@@H](Cc1ccccc1)C(=O)N[C@@H](CCCCN)C(=O)NCCCCCC(=O)NCCCCCN` : 1.4
